These data points were gathered from the supplement of paper PMC3334620.

Biological target: Cin5 (UniProt P40917)
Sequence: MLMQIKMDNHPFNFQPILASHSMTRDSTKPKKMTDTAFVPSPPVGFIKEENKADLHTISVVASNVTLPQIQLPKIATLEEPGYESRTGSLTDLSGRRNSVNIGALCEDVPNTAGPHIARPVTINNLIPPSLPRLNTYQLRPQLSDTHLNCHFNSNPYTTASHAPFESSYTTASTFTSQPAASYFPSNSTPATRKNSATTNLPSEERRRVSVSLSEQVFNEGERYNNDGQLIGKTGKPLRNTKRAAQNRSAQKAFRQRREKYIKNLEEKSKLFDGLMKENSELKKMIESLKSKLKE
Test: PBM E-score (8-mer binding enrichment) (E-score (-0.5 to 0.5)); higher = stronger / more preferred TF binding
Details: protein concentration: 100 nM; construct: GST-full length
The full ranking holds about 33,000 sequences; the median of “E-score (-0.5 to 0.5)” is about -0.0059, and the highest 2% start at about 0.26. The sample as a whole holds a higher share of the highest values than the screen did.
measurementKind: PBM E-score
Just the number, please, no unit after it.

Here is how some sequences turned out for PBM E-score.
INSERT INTO results (residuesequence, reportedvalue) VALUES
  ('GACATTAA', 0.0285),
  ('AACAGTCA', -0.041),
  ('GCTCTTCA', -0.157),
  ('GTGACACA', 0.096),
  ('AAAGTGAA', 0.258),
  ('ATGGACGC', -0.0507),
  ('AAATTAGA', 0.206),
  ('AAACATGT', 0.261),
  ('CCCAGAAG', -0.167),
  ('GTCATTAA', 0.279);

Entry AAGAGAAT has what PBM E-score?
0.261

Here is the next sequence: CAAGCGCC
-0.291

Here is the next sequence: CTGACTTA
0.298

Here is the next sequence: GGTAAGCA
0.318

Here is the next sequence: ATCCGGCA
0.0463

Here is the next sequence: GTAGACCA
-0.101

Here is the next sequence: ATCTGGCC
-0.108

Here is the next sequence: AACATTAA
0.114

Here is the next sequence: CACGTCGC
-0.119

Here is the next sequence: AGGGCCAA
-0.313

Here is the next sequence: ATTGTGAC
0.0953

====

Biological target: Cin5 (UniProt P40917)
Sequence: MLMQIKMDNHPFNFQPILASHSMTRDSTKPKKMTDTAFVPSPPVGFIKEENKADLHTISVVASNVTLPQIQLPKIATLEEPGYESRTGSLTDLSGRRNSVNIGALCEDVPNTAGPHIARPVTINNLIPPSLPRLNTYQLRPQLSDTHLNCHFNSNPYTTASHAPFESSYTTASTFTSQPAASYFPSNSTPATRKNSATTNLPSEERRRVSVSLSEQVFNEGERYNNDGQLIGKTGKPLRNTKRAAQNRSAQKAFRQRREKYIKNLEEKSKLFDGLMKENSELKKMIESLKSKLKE
Assay: PBM E-score (8-mer binding enrichment) (E-score (-0.5 to 0.5)); higher = stronger / more preferred TF binding
Settings: protein concentration: 100 nM; construct: GST-full length
Over roughly 33,000 sequences, “E-score (-0.5 to 0.5)” has its median near -0.0059; the highest 2% begin near 0.26. The full list was thinned out, with the highest values kept by preference.
measurementKind: PBM E-score
Just the number, please, no unit after it.

INSERT INTO results (residuesequence, reportedvalue) VALUES
  ('AATACCTC', 0.0347),
  ('ATAGATAG', 0.0352),
  ('TATCGATA', 0.0449);

Turning to the following sequence.
Entry ATTGAATC has what PBM E-score?
-0.0743

====

Target: Cin5 (UniProt P40917)
Sequence: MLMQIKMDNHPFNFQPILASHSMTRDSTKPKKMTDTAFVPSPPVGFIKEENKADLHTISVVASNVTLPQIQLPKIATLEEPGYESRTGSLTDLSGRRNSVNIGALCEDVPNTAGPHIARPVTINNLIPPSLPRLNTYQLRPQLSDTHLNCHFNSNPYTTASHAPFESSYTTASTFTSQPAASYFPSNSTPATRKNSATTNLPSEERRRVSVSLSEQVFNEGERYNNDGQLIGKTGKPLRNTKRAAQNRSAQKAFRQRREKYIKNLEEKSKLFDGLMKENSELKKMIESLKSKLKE
Assay: PBM E-score (8-mer binding enrichment) (E-score (-0.5 to 0.5)); higher = stronger / more preferred TF binding
Conditions: protein concentration: 100 nM; construct: GST-full length
Over roughly 33,000 sequences, “E-score (-0.5 to 0.5)” has its median near -0.0059; the highest 2% begin near 0.26. The sample as a whole holds a higher share of the highest values than the screen did.
Label rule met when PBM E-score is at or above 0.07; anything below gets rule not met.

Some solved cases for reference:
INSERT INTO measurements (residuesequence, assignedcategory) VALUES
  ('CAGGGCGC', 'rule not met'),
  ('ATTTTCCG', 'rule met'),
  ('ATGCATCG', 'rule met');

Please tell me: is the sequence AATTCGCG at or over 0.07 in terms of PBM E-score?
rule met

Here is the next sequence: GTGCATCA
rule not met

Here is the next sequence: CGTGATTC
rule not met

Here is the next sequence: ATGACGCA
rule met

Here is the next sequence: ATATTACC
rule met

====

Molecular target: Cin5 (UniProt P40917)
Sequence: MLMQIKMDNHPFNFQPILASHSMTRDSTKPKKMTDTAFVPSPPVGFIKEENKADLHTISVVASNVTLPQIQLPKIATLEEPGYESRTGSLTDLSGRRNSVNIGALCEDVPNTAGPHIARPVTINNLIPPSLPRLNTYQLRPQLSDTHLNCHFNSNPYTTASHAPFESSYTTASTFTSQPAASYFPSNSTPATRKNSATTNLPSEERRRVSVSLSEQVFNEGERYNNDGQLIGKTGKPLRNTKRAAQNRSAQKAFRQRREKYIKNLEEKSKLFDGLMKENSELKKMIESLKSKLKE
Assay: PBM E-score (8-mer binding enrichment) (E-score (-0.5 to 0.5)); higher = stronger / more preferred TF binding
Settings: protein concentration: 100 nM; construct: GST-full length
Whole data set: some 33,000 sequences, median “E-score (-0.5 to 0.5)” near -0.0059, cut for the highest 2% near 0.26. For the sample, the highest values were picked, then their nearest neighbours and some sequences at random.
Documented PBM E-score across a set of sequences
Just the number, please, no unit after it.

Here is how some sequences turned out for PBM E-score.
INSERT INTO assay_data (residuesequence, reportedvalue) VALUES
  ('AATTGTGC', 0.124),
  ('ACTCCTAA', 0.00319),
  ('GTGACGTA', 0.204);

Entry GCGCACGC has what PBM E-score?
-0.12

Here is the next sequence: ATATTATG
0.379

Here is the next sequence: ATAATTTC
0.136

Here is the next sequence: ACCATACC
-0.0386

Here is the next sequence: CCACATAG
-0.0996

Here is the next sequence: CTAGGTTA
0.118

Here is the next sequence: ATAATTTG
0.208

Here is the next sequence: ACCAACGC
-0.0288

====

Molecular target: Cin5 (UniProt P40917)
Sequence: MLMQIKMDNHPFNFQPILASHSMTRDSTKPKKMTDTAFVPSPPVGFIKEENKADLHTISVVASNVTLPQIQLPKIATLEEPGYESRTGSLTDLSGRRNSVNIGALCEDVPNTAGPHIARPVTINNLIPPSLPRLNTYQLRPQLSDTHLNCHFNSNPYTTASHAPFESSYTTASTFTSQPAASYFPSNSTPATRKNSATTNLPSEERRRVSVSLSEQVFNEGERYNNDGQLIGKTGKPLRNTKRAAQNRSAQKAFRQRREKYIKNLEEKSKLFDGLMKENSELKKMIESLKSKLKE
Test: PBM E-score (8-mer binding enrichment) (E-score (-0.5 to 0.5)); higher = stronger / more preferred TF binding
Conditions: protein concentration: 100 nM; construct: GST-full length
The full ranking holds about 33,000 sequences; the median of “E-score (-0.5 to 0.5)” is about -0.0059, and the highest 2% start at about 0.26. The sample holds the highest values, similar sequences and a random draw of the others, so the mix is not that of the screen.
Label y when PBM E-score is at or above 0.2; anything below gets n.

INSERT INTO results (residuesequence, assignedcategory) VALUES
  ('CTTCGCCA', 'n'),
  ('GTTACATA', 'y'),
  ('TATGGCCA', 'n');

Please tell me: is the sequence ACAGACAA at or over 0.2 in terms of PBM E-score?
y

Here is the next sequence: AGCCTTAG
n

Here is the next sequence: GAGTATAA
n

Here is the next sequence: AGACCCAG
n
